Test system: M19-MEL
RUN_DESCRIPTION: NCI tumour cell line growth inhibition, 48 h
Calls of active or inactive are those of the source. Rule as the data show it: active = GI50 up to about 1.1 µM and inactive = higher.
Outcomes: true = active, false = inactive

- MOLECULE: "COc1ccc(-c2nc3c(nc2-c2ccc(OC)cc2)C(N)=NS(=O)(=O)N3)cc1"
  ANSWER_LABEL: "false"
- MOLECULE: "Nc1nc2ncn(CC(O)CO)c2c(=S)[nH]1 (stereo not given)"
  ANSWER_LABEL: "false"
- MOLECULE: "CCCCCCC(O)C/C=C/CCCCCC/C(C(=O)OC)=C(/O)C(=O)OCC (stereo not given)"
  ANSWER_LABEL: "false"
- MOLECULE: "O=C1c2ccccc2C(=O)c2nc(-c3ccccc3)c(-c3ccccc3)nc21"
  ANSWER_LABEL: "true"
- MOLECULE: "CC1SC2=NC3=C(c4ccccc4C3=O)C(c3ccc(Br)cc3)N2C1=O (stereo not given)"
  ANSWER_LABEL: "false"
- MOLECULE: "O=C(c1ccc(Cl)cc1)C1OC12C(=O)Nc1ccccc12 (stereo not given)"
  ANSWER_LABEL: "false"
- MOLECULE: "O=C(Nc1nc2ccccc2n1Cc1ccccc1)NC12CC3CC(CC(C3)C1)C2"
  ANSWER_LABEL: "false"
- MOLECULE: "Cc1ccc(C(=O)C(C2=Nc3nnc(N)n3C2=O)C2=Nc3nnc(N)n3C2=O)cc1"
  ANSWER_LABEL: "false"
- MOLECULE: "CC(=O)/C=C/c1cccc(N=S)c1"
  ANSWER_LABEL: "false"
- MOLECULE: "O=C(/C=C1/Nc2ccc([N+](=O)[O-])cc2NC1O)c1cccc([N+](=O)[O-])c1 (stereo not given)"
  ANSWER_LABEL: "false"

###

Test system: Malme-3M
RUN_DESCRIPTION: NCI tumour cell line growth inhibition, 48 h
Active and inactive are the calls of the source. Cut-off read from the data, not from the text of the source: active = GI50 up to about 1.1 µM and inactive = higher.
Outcomes: active, inactive

- COMPOUND: "CSc1nc(-c2ccccc2)c2c(n1)-c1ccccc1CC2"
  ANSWER_LABEL: "inactive"
- COMPOUND: "COc1c(O)cc2oc(-c3ccc(O)cc3)cc(=O)c2c1O [HISPIDULIN]"
  ANSWER_LABEL: "inactive"
- COMPOUND: "CC(=O)N(CCc1ccccc1)C(C#N)c1ccc(OCCCCCCCCCCOc2ccc(C(C#N)N(CCc3ccccc3)C(C)=O)cc2)cc1 (stereo not given)"
  ANSWER_LABEL: "inactive"
- COMPOUND: "Cc1ccc(S(=O)(=O)N(CC(O)COc2ccccc2)c2c(F)c(F)cc(F)c2F)cc1 (stereo not given)"
  ANSWER_LABEL: "inactive"
- COMPOUND: "COc1ccc(/C=C\\c2cc(OC)c(OC)c(OC)c2)cc1OC(=O)CCC(=O)O"
  ANSWER_LABEL: "active"

###

Tested on: MDA-MB-231
RUN_DESCRIPTION: NCI tumour cell line growth inhibition, 48 h
Activity calls are given as the source filed them. Rule as the data show it: active = GI50 up to about 1.1 µM and inactive = higher.
QUANTITY_NAME: GI50

- COMPOUND: "C/C(=N\\NC(=S)N1CCOCC1)c1nc2cccnc2[nH]1"
  TARGET_DESC: "MDA-MB-231"
  RESULT: "28.9 µM (inactive)"
- COMPOUND: "CN(C)c1ccc(/C=N/c2ccc(-c3nc4ccccc4o3)cc2)cc1"
  TARGET_DESC: "MDA-MB-231"
  RESULT: "53.2 µM (inactive)"
- COMPOUND: "CCN(CC)CCCNc1nc(=O)[nH]c(C)c1C(=O)Nc1c2ccccc2nc2ccccc12"
  TARGET_DESC: "MDA-MB-231"
  RESULT: "12.9 µM (inactive)"
- COMPOUND: "ClCCN1CCOC1=C1C=CC=C1"
  TARGET_DESC: "MDA-MB-231"
  RESULT: "> 100 µM (inactive)"
- COMPOUND: "COc1cc2c(cc1O)C(c1cc(O)c(O)c(OC)c1)C(O)(C(=O)O)C(CO)C2O (stereo not given)"
  TARGET_DESC: "MDA-MB-231"
  RESULT: "40.8 µM (inactive)"
- COMPOUND: "CC1(C)Oc2ccc(NC(=O)CCC(N)C(=O)O)cc2O1 (stereo not given)"
  TARGET_DESC: "MDA-MB-231"
  RESULT: "> 100 µM (inactive)"
- COMPOUND: "CC(C)(C)OC(=O)CCC1NC(=O)[C@@H]2Cc3c([nH]c4ccccc34)C(C3CCCCC3)N2C1=O (stereo not given in full)"
  TARGET_DESC: "MDA-MB-231"
  RESULT: "22 µM (inactive)"
- COMPOUND: "CCOC(=O)C1(C(N)=O)C(=O)c2ccncc2C1=O (stereo not given)"
  TARGET_DESC: "MDA-MB-231"
  RESULT: "> 100 µM (inactive)"
- COMPOUND: "O=C1CN(c2cccc(C(F)(F)F)c2)C(=O)CN1CCN1CC(=O)N(c2cccc(C(F)(F)F)c2)CC1=O"
  TARGET_DESC: "MDA-MB-231"
  RESULT: "> 100 µM (inactive)"
- COMPOUND: "BrCC[P+](c1ccccc1)(c1ccccc1)c1ccccc1"
  TARGET_DESC: "MDA-MB-231"
  RESULT: "18.3 µM (inactive)"
